List of pIC50 values.
Target: CDK2/CyclinE1 (Homo sapiens (Human), UniProt P24941)
Test: CDK2/CyclinE1 kinase inhibitory activity (Caliper mobility shift)
Conditions: read-out: CDK2/Cyclin El IC50
pIC50: −log10 of the molar value.

Solved entries:
NS(=O)(=O)c1ccc(Nc2ncc(C(F)(F)F)c(O[C@@H]3CCC[C@@H]3O)n2)cc1 (single isomer, unassigned) [Example 99b] = > 8.00
N#Cc1cnc(Nc2ccc(S(N)(=O)=O)cc2)nc1OC1CCCC1O (single isomer, unassigned) [Example 20b] = 7.00 to 8.00
[2H]C([2H])([2H])NS(=O)(=O)c1ccc(Nc2ncc(C(F)(F)F)c(OC3CCCC3O)n2)cc1 (single isomer, unassigned) [Example 109b] = 7.00 to 8.00
CC(C)NS(=O)(=O)c1ccc(Nc2ncc(C#N)c(OC3CCCC3(C)O)n2)cc1 (single isomer, unassigned) [Example 35b] = > 8.00
Cn1cnc(S(=O)(=O)N2CCC(Nc3ncc(C#N)c(OC4CCCC4(C)O)n3)CC2)c1 (single isomer, unassigned) [Example 50b] = > 8.00

API: the following record is the query input.
Enquiry: Consider the molecule CC1(COc2nc(NC3CCN(S(C)(=O)=O)CC3)ncc2C#N)CCCC1 and give its measured pIC50.
Return: > 8.00

###

Target: CDK2/CyclinE1 (Homo sapiens (Human))
Experiment: CDK2/CyclinE1 kinase inhibitory activity (Caliper mobility shift)
Conditions: read-out: CDK2/Cyclin El IC50
pIC50: −log10 of the molar value.
READOUT NAME: pIC50

Enquiry: Param item = C[C@@H]1CCCCN1c1nc(Nc2ccc(S(N)(=O)=O)cc2)ncc1C#N ; retrieve measured pIC50.
Return: > 8.00

Enquiry: Repeat for the following compound: CS(=O)(=O)N1CCC(Nc2ncc(C(F)(F)F)c(OC3CCCCC3)n2)CC1
Return: > 8.00

Enquiry: Further, for C[C@]1(O)CCC[C@H]1Oc1nc(NC2CCN(S(C)(=O)=O)CC2)ncc1C#N (relative stereo) [Example 3b] ?
Return: > 8.00

Enquiry: Also CC1(O)COCCC1Oc1nc(NC2CCN(S(C)(=O)=O)CC2)ncc1C(F)(F)F (single isomer, unassigned) [Example 124b] , if possible.
Return: 6.00 to 7.00

Enquiry: Thanks! And Cn1cc(S(=O)(=O)N2CCC(Nc3ncc(C#N)c(OC4CCCC4(C)O)n3)CC2)cn1 (single isomer, unassigned) [Example 48a] ?
Return: > 8.00

###

Biological target: CDK4/Cyclin D1 (Homo sapiens (Human), UniProt P11802)
Sequence (P11802 whole entry): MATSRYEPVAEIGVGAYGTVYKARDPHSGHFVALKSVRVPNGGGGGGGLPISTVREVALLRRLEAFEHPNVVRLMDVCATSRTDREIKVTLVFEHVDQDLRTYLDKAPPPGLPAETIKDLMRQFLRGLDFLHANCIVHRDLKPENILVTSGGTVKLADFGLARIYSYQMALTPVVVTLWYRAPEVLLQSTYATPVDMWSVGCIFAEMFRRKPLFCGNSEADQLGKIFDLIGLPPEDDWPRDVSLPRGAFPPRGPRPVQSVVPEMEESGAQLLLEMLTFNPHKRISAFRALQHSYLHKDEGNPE
Sequence (P24385 whole entry partner): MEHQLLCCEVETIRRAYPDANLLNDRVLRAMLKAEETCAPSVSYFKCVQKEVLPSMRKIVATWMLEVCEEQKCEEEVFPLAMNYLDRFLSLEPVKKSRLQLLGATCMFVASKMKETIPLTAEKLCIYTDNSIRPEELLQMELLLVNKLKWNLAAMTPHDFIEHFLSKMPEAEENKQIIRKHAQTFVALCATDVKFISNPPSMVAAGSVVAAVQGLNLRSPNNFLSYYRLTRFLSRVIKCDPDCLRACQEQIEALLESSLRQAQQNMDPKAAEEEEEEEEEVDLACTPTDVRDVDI
Assay: CDK4/CyclinD1 kinase inhibitory activity (Caliper mobility shift)
pIC50: −log10 of the molar value.
Each entry below carries its reported pIC50.

Example results:
CNS(=O)(=O)c1ccc(Nc2ncc(C(F)(F)F)c(OC3CCOCCC3O)n2)cc1 (single isomer, unassigned) [Example 102c] = ≤ 6.00
CC(C)NS(=O)(=O)c1ccc(Nc2ncc(C(F)(F)F)c(OC3CCCC3O)n2)cc1 (single isomer, unassigned) [Example 106a] = 7.00 to 8.00

Enquiry: I am curious: what pIC50 value has been reported for CC1(O)CCCC1Oc1nc(NC2CCN(S(=O)(=O)C(F)(F)F)CC2)ncc1C#N (single isomer, unassigned) [Example 42b] ?
Return: 6.00 to 7.00

###

Molecular target: CDK6/CyclinD1 (Homo sapiens (Human))
Sequence (Q00534 whole entry): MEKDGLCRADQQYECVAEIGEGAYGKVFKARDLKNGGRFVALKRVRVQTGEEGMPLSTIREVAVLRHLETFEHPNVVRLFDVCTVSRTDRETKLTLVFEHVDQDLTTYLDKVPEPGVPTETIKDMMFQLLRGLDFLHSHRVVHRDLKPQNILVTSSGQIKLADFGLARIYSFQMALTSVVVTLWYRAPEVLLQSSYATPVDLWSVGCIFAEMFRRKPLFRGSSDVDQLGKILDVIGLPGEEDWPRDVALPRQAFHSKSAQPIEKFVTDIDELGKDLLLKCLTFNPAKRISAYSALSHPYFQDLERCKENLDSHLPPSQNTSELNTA
Sequence (P24385 whole entry partner): as the sequence (P24385 whole entry partner) above
Assay: CDK6/CyclinD1 kinase inhibitory activity (Caliper mobility shift)
Conditions: read-out: CDK6/Cyclin D1 IC50
READOUT NAME: IC50

Examples from the recorded data:
CNS(=O)(=O)c1ccc(Nc2ncc(C(F)(F)F)c(O[C@H]3CCOC[C@H]3O)n2)c(F)c1 (single isomer, unassigned) [Example 101b] = ≥ 1000 nM
[2H]C([2H])([2H])NS(=O)(=O)c1ccc(Nc2ncc(Br)c(OC3CCCC3O)n2)cc1 (single isomer, unassigned) [Example 143a] = 10 to 100 nM
Cc1cnc(Nc2ccc(S(=O)(=O)NC(C)C)cc2)nc1OC1CCCC1O (single isomer, unassigned) [Example 147a] = 100 to 1000 nM
CS(=O)(=O)N1CCC(Nc2ncc(C(F)(F)F)c(OC3CCCCC3)n2)CC1 [Example 127] = 100 to 1000 nM

Enquiry: Item under review: CC1(COc2nc(NC3CCN(S(C)(=O)=O)CC3)ncc2C#N)CCC1 [Example 53] . Reported IC50?
Return: 10 to 100 nM

Enquiry: Queued: NS(=O)(=O)c1ccc(Nc2ncc(Br)c(OC3CCCC3O)n2)cc1 (single isomer, unassigned) [Example 141a]
Return: 10 to 100 nM

Enquiry: # repeat for O=S(=O)(NC1CC1)c1ccc(Nc2ncc(C(F)(F)F)c(OC3CCCC3O)n2)cc1 (single isomer, unassigned) [Example 107a]
Return: 100 to 1000 nM

###

Biological target: CDK4/Cyclin D1 (Homo sapiens (Human), UniProt P11802)
Experiment: CDK4/CyclinD1 kinase inhibitory activity (Caliper mobility shift)
pIC50: −log10 of the molar value.
Each entry below carries its reported pIC50.

Some entries whose results are on file:
CC1(O)CCCC1Oc1nc(NC2CCN(S(=O)(=O)CC3CC3)CC2)ncc1C#N (single isomer, unassigned) [Example 38a] = > 8.00
C[C@]1(O)CCC[C@H]1Oc1nc(NC2CCN(S(C)(=O)=O)CC2)ncc1C#N (relative stereo) [Example 5a] = > 8.00
CC(C)CS(=O)(=O)N1CCC(Nc2ncc(C#N)c(OC3CCCC3(C)O)n2)CC1 (single isomer, unassigned) [Example 39a] = 7.00 to 8.00

Enquiry: Which pIC50 value is on record for NS(=O)(=O)c1ccc(Nc2ncc(C(F)(F)F)c(OC3CCCCC3O)n2)cc1 (single isomer, unassigned) [Example 111b] ?
Return: 7.00 to 8.00

###

Biological target: CDK2/CyclinE1 (Homo sapiens (Human))
Assay: CDK2/CyclinE1 kinase inhibitory activity (Caliper mobility shift)
Conditions: read-out: CDK2/Cyclin El IC50
Listed next: entries and their corresponding IC50.

Below, each entry is followed by its recorded IC50 result.
Cn1cc(S(=O)(=O)N2CCC(Nc3ncc(C#N)c(OCC4(C)CCCC4)n3)CC2)cn1 = < 0.01 µM
[2H]C([2H])([2H])NS(=O)(=O)c1ccc(Nc2ncc(C(F)(F)F)c(O[C@H]3CCOC[C@H]3O)n2)c(F)c1 (single isomer, unassigned) [Example 101a] = < 0.01 µM
CNS(=O)(=O)c1ccc(Nc2ncc(C(F)(F)F)c(OC3CCOCCC3O)n2)cc1 (single isomer, unassigned) [Example 102b] = < 0.01 µM
CC(C)NS(=O)(=O)c1ccc(Nc2ncc(C#N)c(OC3CCC(O)C3)n2)cc1 (single isomer, unassigned) [Example 29b] = < 0.01 µM
CNS(=O)(=O)c1ccc(Nc2ncc(C(F)(F)F)c(OC3CCCC3O)n2)cc1 (single isomer, unassigned) [Example 105a] = < 0.01 µM
CCc1cnc(Nc2ccc(S(N)(=O)=O)cc2)nc1O[C@@H]1CCC[C@@H]1O (single isomer, unassigned) [Example 133b] = < 0.01 µM

Enquiry: Need IC50 of CC1(O)CCCC1Oc1nc(NC2CCN(S(=O)(=O)CF)CC2)ncc1C#N (single isomer, unassigned) [Example 37a] , thanks.
Return: < 0.01 µM

Enquiry: Here is the next compound: N#Cc1cnc(Nc2ccc(S(N)(=O)=O)cc2)nc1N1CCCCCC1
Return: < 0.01 µM

Enquiry: Another compound to look at: C[C@]1(O)CCC[C@H]1Oc1nc(NC2CCN(S(C)(=O)=O)CC2)ncc1C#N (relative stereo) [Example 5a]
Return: < 0.01 µM

Enquiry: Subsequent entry: N#Cc1cnc(Nc2ccc(S(N)(=O)=O)cc2)nc1N1CCC[C@@H](CO)C1
Return: 0.01 to 0.1 µM

Enquiry: Continue with CC1(NS(=O)(=O)c2ccc(Nc3ncc(Br)c(O[C@@H]4CCC[C@@H]4O)n3)cc2)COC1 (single isomer, unassigned) [Example 131b]
Return: < 0.01 µM

Enquiry: Ok, now CC(C)NS(=O)(=O)c1ccc(Nc2ncc(C3CC3)c(O[C@@H]3CCC[C@@H]3O)n2)cc1 (single isomer, unassigned) [Example 134b]
Return: 0.01 to 0.1 µM

###

Target: CDK1/CyclinB (Homo sapiens (Human))
Sequence (P06493 whole entry): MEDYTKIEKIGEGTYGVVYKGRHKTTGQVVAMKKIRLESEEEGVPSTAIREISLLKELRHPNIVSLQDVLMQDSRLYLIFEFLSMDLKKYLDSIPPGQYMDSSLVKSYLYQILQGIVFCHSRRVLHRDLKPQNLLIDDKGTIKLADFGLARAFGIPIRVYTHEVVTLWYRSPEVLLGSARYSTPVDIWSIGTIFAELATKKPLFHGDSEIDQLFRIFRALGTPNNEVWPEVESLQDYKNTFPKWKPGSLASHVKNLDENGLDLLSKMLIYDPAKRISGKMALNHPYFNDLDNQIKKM
Sequence (P14635 whole entry partner): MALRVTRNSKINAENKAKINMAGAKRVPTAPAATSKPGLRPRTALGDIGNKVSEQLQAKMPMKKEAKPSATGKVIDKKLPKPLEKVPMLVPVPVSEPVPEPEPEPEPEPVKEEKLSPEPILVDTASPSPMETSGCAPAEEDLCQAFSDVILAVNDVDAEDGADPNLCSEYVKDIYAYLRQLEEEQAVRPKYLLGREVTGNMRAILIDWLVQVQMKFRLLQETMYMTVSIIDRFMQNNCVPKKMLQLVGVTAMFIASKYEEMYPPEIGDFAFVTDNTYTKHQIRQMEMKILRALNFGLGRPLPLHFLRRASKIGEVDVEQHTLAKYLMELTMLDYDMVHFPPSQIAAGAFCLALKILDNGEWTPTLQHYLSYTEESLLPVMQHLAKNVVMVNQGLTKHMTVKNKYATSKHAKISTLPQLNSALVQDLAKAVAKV
Assay: CDK1/CyclinB kinase inhibitory activity (Caliper mobility shift)
Conditions: read-out: CDK1/Cyclin B1 IC50
// reported IC50 for each item listed

The cases that follow already have their IC50 on record.
CC1(O)COCCC1Oc1nc(NC2CCN(S(C)(=O)=O)CC2)ncc1C(F)(F)F (single isomer, unassigned) [Example 124b] = ≥ 1000 nM
N#Cc1cnc(Nc2ccc(S(N)(=O)=O)cc2)nc1OC1CCCCCC1O (single isomer, unassigned) [Example 22b] = 10 to 100 nM
Cc1cnc(Nc2ccc(S(=O)(=O)NC3CC3)cc2)nc1OC1CCCC1O (single isomer, unassigned) [Example 146b] = 100 to 1000 nM
Cn1cc(S(=O)(=O)N2CCC(Nc3ncc(C#N)c(OC4CCCC4(C)O)n3)CC2)cn1 (single isomer, unassigned) [Example 48a] = < 10 nM
CC1(O)CCC(F)(F)CC1Oc1nc(NC2CCN(S(C)(=O)=O)CC2)ncc1C#N (single isomer, unassigned) [Example 46b] = < 10 nM

Enquiry: For C=Cc1cnc(Nc2ccc(S(N)(=O)=O)cc2)nc1OC1CCCC1O (single isomer, unassigned) [Example 155b] , what is its reported IC50?
Return: 100 to 1000 nM

Enquiry: Entry to check: [2H]C1([2H])CC(O)C(Oc2nc(Nc3ccc(S(=O)(=O)NC([2H])([2H])[2H])cc3)ncc2C(F)(F)F)C1 (single isomer, unassigned) [Example 110b]
Return: 100 to 1000 nM

Enquiry: Same question, Cn1cc(S(=O)(=O)N2CCC(Nc3ncc(Br)c(OC4CCCCC4O)n3)CC2)cn1 (single isomer, unassigned) [Example 144b] this time
Return: 10 to 100 nM

Enquiry: Now this one: C[C@H]1CCCN(c2nc(Nc3ccc(S(N)(=O)=O)cc3)ncc2C#N)C1 [Example 71]
Return: 10 to 100 nM

Enquiry: Request: CC1(O)CC(F)(F)CC1Oc1nc(NC2CCN(S(=O)(=O)CC3CC3)CC2)ncc1C#N (single isomer, unassigned) [Example 44b]
Return: 10 to 100 nM

Enquiry: What about this molecule? CC1(O)CCCC1Oc1nc(NC2CCN(S(=O)(=O)CC(F)(F)F)CC2)ncc1C#N (single isomer, unassigned) [Example 43a]
Return: 10 to 100 nM

Enquiry: Please give the result for O=S(=O)(NC1CC1)c1ccc(Nc2ncc(C(F)(F)F)c(OC3CCCC3O)n2)cc1 (single isomer, unassigned) [Example 107b] too.
Return: 10 to 100 nM

Enquiry: Same thing, different molecule: COCCS(=O)(=O)N1CCC(Nc2ncc(C#N)c(OCC3(C)CCCC3)n2)CC1 [Example 58]
Return: 10 to 100 nM

Enquiry: Another: [2H]C([2H])([2H])NS(=O)(=O)c1ccc(Nc2ncc(C(F)(F)F)c(OC3CCCC3O)n2)cc1 (single isomer, unassigned) [Example 109a]
Return: 10 to 100 nM

Enquiry: And then CS(=O)(=O)N1CCC(Nc2ncc(Br)c(OC3CCCCCC3O)n2)CC1 (single isomer, unassigned) [Example 145a] , what is it?
Return: 100 to 1000 nM

Enquiry: // next record C[C@@H]1CCCCN1c1nc(Nc2ccc(S(N)(=O)=O)cc2)ncc1C#N [Example 73]
Return: 10 to 100 nM

Enquiry: Now try CC1(O)CCCC1Oc1nc(NC2CCN(S(=O)(=O)CF)CC2)ncc1C#N (single isomer, unassigned) [Example 37a] .
Return: 10 to 100 nM

Enquiry: Now consider N#Cc1cnc(Nc2ccc(S(N)(=O)=O)cc2)nc1OCC1(CO)CCCCC1 [Example 17] .
Return: 10 to 100 nM

Enquiry: Same question, NS(=O)(=O)c1ccc(Nc2ncc(C(F)(F)F)c(O[C@H]3[C@@H]4CC[C@@H](C4)[C@H]3O)n2)cc1 (single isomer, unassigned) [Example 113a] this time
Return: 100 to 1000 nM

Enquiry: Input N#Cc1cnc(Nc2ccc(S(=O)(=O)NC3CC(F)C3)cc2)nc1OC1CCCCC1O (single isomer, unassigned) [Example 31a]
Return: 10 to 100 nM

Enquiry: Another molecule: [2H]C([2H])([2H])NS(=O)(=O)c1ccc(Nc2ncc(Br)c(OC3CCCC3O)n2)cc1 (single isomer, unassigned) [Example 143a]
Return: 10 to 100 nM

Enquiry: // next record CNc1cccc(-c2nc(Nc3ccc(S(N)(=O)=O)cc3)ncc2C#N)c1 [Example 97]
Return: 100 to 1000 nM

Enquiry: And then CC1(O)CC(F)(F)CCC1Oc1nc(NC2CCN(S(C)(=O)=O)CC2)ncc1C#N (single isomer, unassigned) [Example 47a] , what is it?
Return: 10 to 100 nM

Enquiry: How about N#Cc1cnc(Nc2ccc(S(N)(=O)=O)cc2)nc1OCC1CCCCC1 [Example 13] ?
Return: 10 to 100 nM

Enquiry: Do the same for CC(C)NS(=O)(=O)c1ccc(Nc2ncc(C(F)(F)F)c(OC3CCCC3O)n2)cc1 (single isomer, unassigned) [Example 106b] please
Return: 10 to 100 nM

Enquiry: Would you mind doing [2H]C([2H])([2H])NS(=O)(=O)c1ccc(Nc2ncc(C(F)(F)F)c(OC3CCCC3)n2)cc1 [Example 108] as well?
Return: 10 to 100 nM

Enquiry: Input [2H]C([2H])([2H])NS(=O)(=O)c1ccc(Nc2ncc(C(F)(F)F)c(OC3CCOCCC3O)n2)cc1 (single isomer, unassigned) [Example 102a]
Return: 100 to 1000 nM
